molecular target: platelet lipoxygenase (Homo sapiens, UniProt P18054); construct: metabolism of radioactively labelled arachidonic acid by washed human platelets; endogenous in cells; host or cells: washed human platelets; assay: Inhibition of the platelet lipoxygenase (synthesis of HETE), metabolism of radioactively labelled arachidonic acid by washed human platelets; type: cell-based; conditions: in vitro
Sequence (P18054 whole entry): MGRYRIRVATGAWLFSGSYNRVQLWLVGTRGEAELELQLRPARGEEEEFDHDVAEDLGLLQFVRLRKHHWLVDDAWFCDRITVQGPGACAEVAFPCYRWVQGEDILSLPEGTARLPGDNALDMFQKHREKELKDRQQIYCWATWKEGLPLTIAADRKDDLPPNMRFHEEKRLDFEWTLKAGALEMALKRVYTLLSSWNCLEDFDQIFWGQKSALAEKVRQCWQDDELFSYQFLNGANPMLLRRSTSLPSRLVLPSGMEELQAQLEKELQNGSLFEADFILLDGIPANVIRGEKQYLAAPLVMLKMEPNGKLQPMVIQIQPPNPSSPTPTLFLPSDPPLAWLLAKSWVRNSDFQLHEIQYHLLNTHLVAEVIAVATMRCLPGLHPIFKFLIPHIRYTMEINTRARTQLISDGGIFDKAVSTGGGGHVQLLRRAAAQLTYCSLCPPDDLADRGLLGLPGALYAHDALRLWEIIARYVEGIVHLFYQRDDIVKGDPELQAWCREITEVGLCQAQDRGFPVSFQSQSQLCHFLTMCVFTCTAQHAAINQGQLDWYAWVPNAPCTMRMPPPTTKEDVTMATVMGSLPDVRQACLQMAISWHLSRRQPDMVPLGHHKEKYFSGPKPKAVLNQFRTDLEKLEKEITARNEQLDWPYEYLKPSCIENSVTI
recorded-endpoint: Minimum effective inhibitory concentration (at least 50% inhibition)

Entry O=C1CCN(c2ccccc2)N1Sc1ccc(Cl)cc1 , system platelet lipoxygenase (Homo sapiens, UniProt P18054): what Minimum effective inhibitory concentration (at least 50% inhibition) was measured?
10^-6 g/ml

Entry CC(C)(C)c1ccc(SN2CCCCCC2=O)cc1 , system platelet lipoxygenase (Homo sapiens, UniProt P18054): what Minimum effective inhibitory concentration (at least 50% inhibition) was measured?
10^-5 g/ml

Entry O=C1c2ccccc2C(=O)N1Sc1ccccc1 , system platelet lipoxygenase (Homo sapiens, UniProt P18054): what Minimum effective inhibitory concentration (at least 50% inhibition) was measured?
10^-6 g/ml
